Target: Alpha-1D adrenergic receptor (Homo sapiens, UniProt P25100)
Sequence (P25100 whole entry): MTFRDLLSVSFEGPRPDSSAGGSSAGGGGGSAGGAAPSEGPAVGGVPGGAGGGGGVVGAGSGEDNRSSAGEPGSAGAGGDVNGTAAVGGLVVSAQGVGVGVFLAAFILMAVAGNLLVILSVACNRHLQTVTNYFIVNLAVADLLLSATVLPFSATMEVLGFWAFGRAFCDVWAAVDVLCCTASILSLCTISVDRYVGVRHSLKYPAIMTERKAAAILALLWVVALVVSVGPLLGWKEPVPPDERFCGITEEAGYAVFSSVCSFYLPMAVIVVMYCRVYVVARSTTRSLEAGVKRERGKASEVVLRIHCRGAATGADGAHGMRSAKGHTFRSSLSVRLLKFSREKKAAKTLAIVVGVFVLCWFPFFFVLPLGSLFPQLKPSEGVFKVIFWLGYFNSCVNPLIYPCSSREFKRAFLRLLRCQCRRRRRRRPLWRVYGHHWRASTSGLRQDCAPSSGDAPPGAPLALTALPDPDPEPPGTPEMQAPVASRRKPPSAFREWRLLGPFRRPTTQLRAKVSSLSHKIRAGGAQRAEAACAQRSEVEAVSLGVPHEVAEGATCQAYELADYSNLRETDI
Assay: Displacement of 7-methoxy-[3H]-prazosin from human alpha1D adrenergic receptor expressed in CHO-K1 cell membranes incubated for 60 mins by liquid scintillation counting analysis
Would you kindly list Ki for each of these compounds?
Provide the reading as a plain figure in nM.

The recorded Ki for CC(c1cccc(S(C)(=O)=O)c1)n1cc(Cl)cc(C(N)=O)c1=N (stereo unspecified) is 15

The recorded Ki for CC(c1cccc(C#N)c1)n1cc(Cl)cc(C(N)=O)c1=N (stereo unspecified) is 3.4

The recorded Ki for N=c1c(C(N)=O)cc(Cl)cn1Cc1cccc(C(N)=O)c1 is 26

The recorded Ki for C[C@@H](c1cccc(C#N)c1)n1cc(Cl)cc(C(N)=O)c1=N [(S)-9s] is 130

The recorded Ki for N#Cc1cccc(Cn2cc(Cl)cc(C(N)=O)c2=N)c1 is 10

The recorded Ki for N=c1c(C(N)=O)cc(Cl)cn1Cc1ccc(C(N)=O)c(Cl)c1 is 65

The recorded Ki for N#Cc1ccc(Cn2cc(Cl)cc(C(N)=O)c2=N)cc1Cl is 11

The recorded Ki for C[C@H](c1cccc(C#N)c1)n1cc(Cl)cc(C(N)=O)c1=N [(R)-9s] is 1.6

The recorded Ki for N=c1c(C(N)=O)cc(Cl)cn1CCCc1ccccc1 is 54

The recorded Ki for COc1cccc(Cn2cc(Cl)cc(C(N)=O)c2=N)c1 is 8.7

The recorded Ki for N=c1c(C(N)=O)cc(Cl)cn1CCc1ccccc1 is 16

The recorded Ki for Cc1cccc(Cn2cc(Cl)cc(C(N)=O)c2=N)c1 is 7.5

The recorded Ki for CS(=O)(=O)c1cccc(Cn2cc(Cl)cc(C(N)=O)c2=N)c1 is 52

The recorded Ki for N=c1c(C(N)=O)cc(Cl)cn1Cc1ccccc1 is 30

* * *

PROPERTY_LABEL: Ki

Hey, UniProt P35368 data for N=c1c(C(N)=O)cc(Cl)cn1Cc1ccccc1 : Ki came out at > 1200 nM

* * *

test: Total clearance in rat at 0.1 mg/kg, iv administered via cassette dosing by LC/MS/MS analysis; format: ADME, organism-based; conditions: in vivo
Would you kindly list clearance for each of these molecules?
Provide the reading as a plain figure in mL/min/kg.

The recorded clearance for C[C@H](c1cccc(C#N)c1)n1cc(Cl)cc(C(N)=O)c1=N [(R)-9s] is 39.2

The recorded clearance for CS(=O)(=O)c1ccc(Cl)cc1Cn1cc(Cl)cc(C(N)=O)c1=N is 39.9

The recorded clearance for N=c1c(C(N)=O)cc(Cl)cn1Cc1cc(Cl)cc(C(N)=O)c1 is 47.2

* * *

target: Alpha-1A adrenergic receptor (Homo sapiens); experiment: Displacement of 7-methoxy-[3H]-prazosin from human alpha1A adrenergic receptor expressed in CHO-K1 cell membranes incubated for 60 mins by liquid scintillation counting analysis
Sequence (P35348 whole entry): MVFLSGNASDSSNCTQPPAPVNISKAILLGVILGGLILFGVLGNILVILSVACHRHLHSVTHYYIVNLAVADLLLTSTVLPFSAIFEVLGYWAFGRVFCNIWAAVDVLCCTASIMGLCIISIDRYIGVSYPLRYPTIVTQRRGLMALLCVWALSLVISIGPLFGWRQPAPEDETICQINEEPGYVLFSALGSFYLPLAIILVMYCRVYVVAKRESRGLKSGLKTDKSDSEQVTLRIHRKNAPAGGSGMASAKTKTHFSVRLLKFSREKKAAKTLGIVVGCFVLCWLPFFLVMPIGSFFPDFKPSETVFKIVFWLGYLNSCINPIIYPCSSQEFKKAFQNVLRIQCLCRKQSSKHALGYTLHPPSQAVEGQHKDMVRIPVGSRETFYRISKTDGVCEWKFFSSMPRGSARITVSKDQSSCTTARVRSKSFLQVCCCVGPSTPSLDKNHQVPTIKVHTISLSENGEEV
pKi: −log10 of the molar value.
PROPERTY_LABEL: pKi

The recorded pKi for N=c1c(C(N)=O)cc(Cl)cn1Cc1ccccc1 is < 5.57

* * *

experiment: Clearance in human liver microsomes at 1 uM after 15 to 30 mins by LC/MS/MS analysis; format: ADME; conditions: read-out: CLH
PROPERTY_LABEL: microsomal CLint at 1 µM
Could you give the number and then its unit, please?

The recorded microsomal CLint at 1 µM for Cl.N=c1c(C(N)=O)cc(Cl)cn1Cc1cccc(Cl)c1 is 3 µL/min/mg

* * *

assay: Permeability of compound at pH 7.4 by PAMPA; assay type: ADME; conditions: read-out: permeability
PROPERTY_LABEL: Papp (×10⁻⁶ cm/s)
Provide the reading as a plain figure in ×10⁻⁶ cm/s.

The recorded Papp for Cl.N=c1c(C(N)=O)cc(Cl)cn1Cc1cccc(Cl)c1 is 11.6

* * *

Would you kindly list pKi for each of these compounds?
Molecular target: Alpha-1D adrenergic receptor (Homo sapiens)
Sequence (P25100 whole entry): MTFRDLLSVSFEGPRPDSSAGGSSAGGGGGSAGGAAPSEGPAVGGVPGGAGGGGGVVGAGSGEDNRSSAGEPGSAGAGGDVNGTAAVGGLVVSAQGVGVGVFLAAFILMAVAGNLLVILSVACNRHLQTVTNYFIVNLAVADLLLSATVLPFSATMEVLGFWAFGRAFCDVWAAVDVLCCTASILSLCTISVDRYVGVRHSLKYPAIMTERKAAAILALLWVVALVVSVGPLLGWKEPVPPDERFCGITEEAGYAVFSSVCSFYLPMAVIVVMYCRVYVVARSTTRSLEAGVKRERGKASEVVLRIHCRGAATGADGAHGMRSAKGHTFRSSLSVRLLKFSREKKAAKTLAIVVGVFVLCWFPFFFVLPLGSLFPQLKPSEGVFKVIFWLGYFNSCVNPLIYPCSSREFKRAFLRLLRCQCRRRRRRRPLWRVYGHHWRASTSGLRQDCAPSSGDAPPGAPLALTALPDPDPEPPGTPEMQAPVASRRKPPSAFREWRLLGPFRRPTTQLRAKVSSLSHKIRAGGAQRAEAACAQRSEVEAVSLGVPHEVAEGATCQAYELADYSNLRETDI
Reminder that pKi means the negative base-10 logarithm of the concentration expressed in mol/L.

The recorded pKi for N=c1c(C(N)=O)cccn1Cc1ccccc1 is 6.06

The recorded pKi for N=c1c(C(N)=O)cc(Br)cn1Cc1ccccc1 is 6.80

The recorded pKi for N=c1c(C(N)=O)cc(Cl)cn1Cc1cccc(Cl)c1 is 8.59

The recorded pKi for N=c1c(C(N)=O)cc(Cl)cn1Cc1ccco1 is 6.80

The recorded pKi for N=c1c(C(N)=O)cc(Cl)cn1Cc1ccccc1Cl is 7.41

The recorded pKi for N=c1c(C(N)=O)cc(Cl)cn1Cc1ccc(Cl)cc1 is 7.64

The recorded pKi for CS(=O)(=O)c1ccc(Cn2cc(Cl)cc(C(N)=O)c2=N)cc1Cl is 8.03

The recorded pKi for N=c1c(C(N)=O)cc(Cl)cn1Cc1ccccn1 is 6.38

The recorded pKi for CC(c1cccc(Cl)c1)n1cc(Cl)cc(C(N)=O)c1=N (configuration not stated) is 9.18

The recorded pKi for N=c1c(C(N)=O)cc(Cl)cn1Cc1cccnc1 is 6.60

* * *

Would you kindly list inhibition at 5 min, 10 µM for each of these compounds?
biological target: UniProtKB Q12809; test: Inhibition of human ERG channel expressed in CHO cells assessed as peak tail current at 10 uM incubated for 5 mins by patch-clamp assay; assay type: cell-based; details: CHO cells expressing human ERG channel
Sequence (Q12809 whole entry): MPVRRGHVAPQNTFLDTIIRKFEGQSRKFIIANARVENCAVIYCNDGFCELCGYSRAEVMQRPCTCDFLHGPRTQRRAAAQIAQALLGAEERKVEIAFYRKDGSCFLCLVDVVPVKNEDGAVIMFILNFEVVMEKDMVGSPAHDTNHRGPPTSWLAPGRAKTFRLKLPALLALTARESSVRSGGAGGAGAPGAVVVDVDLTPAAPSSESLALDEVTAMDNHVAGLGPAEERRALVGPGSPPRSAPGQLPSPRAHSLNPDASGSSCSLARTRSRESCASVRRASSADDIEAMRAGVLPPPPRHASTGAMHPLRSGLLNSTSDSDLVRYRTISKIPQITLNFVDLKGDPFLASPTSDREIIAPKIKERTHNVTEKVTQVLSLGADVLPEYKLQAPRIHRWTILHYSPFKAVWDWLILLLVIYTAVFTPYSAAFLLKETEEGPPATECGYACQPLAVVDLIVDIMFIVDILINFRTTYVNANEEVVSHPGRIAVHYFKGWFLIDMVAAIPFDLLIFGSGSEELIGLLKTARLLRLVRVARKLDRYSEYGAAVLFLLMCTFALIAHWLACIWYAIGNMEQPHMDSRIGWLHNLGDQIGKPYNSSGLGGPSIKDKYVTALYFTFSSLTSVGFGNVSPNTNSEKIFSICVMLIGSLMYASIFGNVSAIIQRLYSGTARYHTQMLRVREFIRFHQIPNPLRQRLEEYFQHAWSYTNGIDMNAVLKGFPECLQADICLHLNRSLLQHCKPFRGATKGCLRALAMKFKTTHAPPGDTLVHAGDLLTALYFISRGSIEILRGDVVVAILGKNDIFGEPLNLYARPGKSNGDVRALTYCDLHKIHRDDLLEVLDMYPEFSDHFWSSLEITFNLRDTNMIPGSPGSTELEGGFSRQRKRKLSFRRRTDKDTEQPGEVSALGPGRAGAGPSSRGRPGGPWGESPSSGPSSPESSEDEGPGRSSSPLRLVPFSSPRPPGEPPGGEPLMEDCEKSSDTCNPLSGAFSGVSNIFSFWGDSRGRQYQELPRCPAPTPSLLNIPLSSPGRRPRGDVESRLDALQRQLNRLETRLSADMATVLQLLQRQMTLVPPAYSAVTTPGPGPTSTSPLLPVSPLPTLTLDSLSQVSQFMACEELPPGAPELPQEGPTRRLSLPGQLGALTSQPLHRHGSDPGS
Provide the reading as a plain figure in %.

The recorded inhibition at 5 min, 10 µM for N=c1c(C(N)=O)cc(Cl)cn1Cc1ccc(C(N)=O)c(Cl)c1 is 10

The recorded inhibition at 5 min, 10 µM for CC(c1cccc(Cl)c1)n1cc(Cl)cc(C(N)=O)c1=N (stereo not drawn) is 48

The recorded inhibition at 5 min, 10 µM for N=c1c(C(N)=O)cc(Cl)cn1Cc1cccc(Cl)c1 is 47

* * *

molecular target: CYP3A4 (Homo sapiens, UniProt P08684); experiment: Reversible inhibition of CYP3A4 in human liver microsomes at 10 uM using midazolam as substrate incubated for 10 mins by LC/MS/MS analysis; type: ADME; settings: probe midazolam
Sequence (P08684 whole entry): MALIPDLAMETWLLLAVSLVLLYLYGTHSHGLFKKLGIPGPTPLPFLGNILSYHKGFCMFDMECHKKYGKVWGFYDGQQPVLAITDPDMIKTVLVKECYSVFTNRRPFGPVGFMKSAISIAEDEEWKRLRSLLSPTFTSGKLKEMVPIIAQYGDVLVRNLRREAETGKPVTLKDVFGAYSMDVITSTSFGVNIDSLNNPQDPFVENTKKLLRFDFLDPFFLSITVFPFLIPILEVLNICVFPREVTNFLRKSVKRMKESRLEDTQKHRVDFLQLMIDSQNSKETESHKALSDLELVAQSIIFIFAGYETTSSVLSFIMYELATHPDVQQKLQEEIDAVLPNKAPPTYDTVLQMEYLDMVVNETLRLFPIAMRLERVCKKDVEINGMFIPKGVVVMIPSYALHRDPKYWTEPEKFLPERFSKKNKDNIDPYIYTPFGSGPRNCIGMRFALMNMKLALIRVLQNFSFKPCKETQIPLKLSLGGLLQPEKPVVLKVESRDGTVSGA
PROPERTY_LABEL: inhibition at 10 min, 10 µM (%)
Provide the reading as a plain figure in %.

The recorded inhibition at 10 min, 10 µM for Cl.N=c1c(C(N)=O)cc(Cl)cn1Cc1cccc(Cl)c1 is -1.6

* * *

organism: Homo sapiens; assay: Selectivity ratio of Ki for human alpha1A adrenergic receptor to Ki for human alpha1D adrenergic receptor
Would you kindly list Ratio Ki for each of these molecules?
I'd appreciate a reply containing only the number, no unit.

The recorded Ratio Ki for CCOc1ccccc1OCCN[C@H](C)Cc1ccc(OC)c(S(N)(=O)=O)c1 is 0.7

The recorded Ratio Ki for CS(=O)(=O)c1ccc(Cl)cc1Cn1cc(Cl)cc(C(N)=O)c1=N is 200
